meta.source: patent US9969698B2

- experimental details: Human pharmacokinetics, dose-ranging study
- Assay type: in vivo
- protocol conditions: human, plasma, po, 425 mg, oral capsule; 425 mg, 1 per week; Day 1; fasted; read-out: Cmax

smiles string: COc1cc(OC)cc(N2CCN(C(=O)Nc3nc4cc(F)ccc4nc3OC)CC2)c1
Cmax / ng/mL: 660

====

- experimental details: Solubility assessment in solvents
- Type: physicochemical
- protocol conditions: THF, 50 °C, organic solvent or mixture, thermodynamic from solid; read-out: Solubility at 50° C.

smiles string: COc1cc(OC)cc(N2CCN(C(=O)Nc3nc4cc(F)ccc4nc3OC)CC2)c1
solubility at 10 min: ≥ 25 mg/mL

====

- experimental details: Human pharmacokinetics, dose-ranging study
- Assay type: in vivo
- protocol conditions: human, plasma, po, 100 mg, oral capsule; 100 mg, 1 per week; Day 1; fasted; read-out: AUC0-24
measure: AUC(0-t) (ng·h/mL)

smiles string: COc1cc(OC)cc(N2CCN(C(=O)Nc3nc4cc(F)ccc4nc3OC)CC2)c1
numeric result: 1780

====

- experimental details: Human pharmacokinetics, dose-ranging study
- Type: in vivo
- protocol conditions: human, plasma, po, 300 mg, oral capsule; 300 mg, 7 per week; Day 15; fasted; read-out: Cmax

smiles string: COc1cc(OC)cc(N2CCN(C(=O)Nc3nc4cc(F)ccc4nc3OC)CC2)c1
Cmax, ng/mL: 1250

====

- experimental details: Human pharmacokinetics, dose-ranging study
- Format: in vivo
- protocol conditions: human, plasma, po, 300 mg, oral capsule; 300 mg, 1 per week; Day 1; fasted; read-out: AUC0-24

smiles string: COc1cc(OC)cc(N2CCN(C(=O)Nc3nc4cc(F)ccc4nc3OC)CC2)c1
AUC(0-t) [ng·h/mL]: 4680

====

- experimental details: Human pharmacokinetics, dose-ranging study
- Type: in vivo
- protocol conditions: human, plasma, po, 300 mg, oral capsule; 300 mg, 7 per week; Day 1; fasted; read-out: AUC0-48

molecule: COc1cc(OC)cc(N2CCN(C(=O)Nc3nc4cc(F)ccc4nc3OC)CC2)c1 [RX-5902]
display unit: ng·h/mL
AUC(0-t): 3180

====

- experimental details: Human pharmacokinetics, dose-ranging study
- Format: in vivo
- protocol conditions: human, plasma, po, 225 mg, oral capsule; 225 mg, 1 per week; Day 1; fasted; read-out: AUC0-24
measure: AUC(0-t) (ng·h/mL)

compound: COc1cc(OC)cc(N2CCN(C(=O)Nc3nc4cc(F)ccc4nc3OC)CC2)c1 [RX-5902]
numeric result: 3420

====

- experimental details: Solubility assessment in solvents
- Format: physicochemical
- protocol conditions: ethanol, organic solvent or mixture, thermodynamic from solid; read-out: Solubility at RT
- Protocol: RX-5902 (ca. 2 mg) was weighed in a 1.5 ml clear glass vials. An aliquot of the corresponding solvent or solvent mixture was added at RT and solubility was assessed after 10 min as shown in Table 12. Solutions and suspensions were then placed into a shaking chamber at 50° C. for 10 more minutes. If no dissolution was observed, another aliquot of solvent was added and samples were placed in the shaking chamber at 50° C. for 10 more minutes. […]

molecule: COc1cc(OC)cc(N2CCN(C(=O)Nc3nc4cc(F)ccc4nc3OC)CC2)c1 [RX-5902]
solubility at 10 min: < 100 mg/mL

====

- experimental details: Human pharmacokinetics, dose-ranging study
- Format: in vivo
- protocol conditions: human, plasma, po, 300 mg, oral capsule; 300 mg, 1 per week; Day 1; fed; read-out: Cmax
measure: Cmax (ng/mL)

smiles string: COc1cc(OC)cc(N2CCN(C(=O)Nc3nc4cc(F)ccc4nc3OC)CC2)c1
display unit: ng/mL
numeric result: 779

====

- experimental details: Human pharmacokinetics, dose-ranging study
- Type: in vivo
- protocol conditions: human, plasma, po, 350 mg, oral capsule; 350 mg, 7 per week; Day 1; fasted; read-out: Cmax

smiles string: COc1cc(OC)cc(N2CCN(C(=O)Nc3nc4cc(F)ccc4nc3OC)CC2)c1
Cmax / ng/mL: 750

====

- experimental details: Solubility assessment in solvents
- Type: physicochemical
- protocol conditions: MIBK, 50 °C, organic solvent or mixture, thermodynamic from solid; read-out: Solubility at 50° C.
measure: solubility at 10 min

smiles string: COc1cc(OC)cc(N2CCN(C(=O)Nc3nc4cc(F)ccc4nc3OC)CC2)c1
result: ≥ 6250 µg/mL

====

- experimental details: Human pharmacokinetics, dose-ranging study
- Assay type: in vivo
- protocol conditions: human, plasma, po, 250 mg, oral capsule; 250 mg, 3 per week; Day 1; fasted; read-out: Tmax

smiles string: COc1cc(OC)cc(N2CCN(C(=O)Nc3nc4cc(F)ccc4nc3OC)CC2)c1
Tmax, h: 2

====

- experimental details: Solubility assessment in solvents
- Assay type: physicochemical
- protocol conditions: ethanol, 50 °C, organic solvent or mixture, thermodynamic from solid; read-out: Solubility at 50° C.
measure: solubility at 10 min

smiles string: COc1cc(OC)cc(N2CCN(C(=O)Nc3nc4cc(F)ccc4nc3OC)CC2)c1
measure: solubility at 10 min
result: ≥ 2500 µg/mL

====

- experimental details: Human pharmacokinetics, dose-ranging study
- Assay type: in vivo
- protocol conditions: human, plasma, po, 575 mg, oral capsule; 575 mg, 1 per week; Day 1; fasted; read-out: AUC0-48

smiles string: COc1cc(OC)cc(N2CCN(C(=O)Nc3nc4cc(F)ccc4nc3OC)CC2)c1
AUC(0-t) [ng·h/mL]: 10100

====

- experimental details: Human pharmacokinetics, dose-ranging study
- Assay type: in vivo
- protocol conditions: human, plasma, po, 200 mg, oral capsule; 200 mg, 5 per week; Day 1; fasted; read-out: T1/2 (converted)
measure: half-life

smiles string: COc1cc(OC)cc(N2CCN(C(=O)Nc3nc4cc(F)ccc4nc3OC)CC2)c1
result: 8.5 h

====

- experimental details: Human pharmacokinetics, dose-ranging study
- Format: in vivo
- protocol conditions: human, plasma, po, 150 mg, oral capsule; 150 mg, 5 per week; Day 15; fasted; read-out: Cmax

compound: COc1cc(OC)cc(N2CCN(C(=O)Nc3nc4cc(F)ccc4nc3OC)CC2)c1 [RX-5902]
Cmax / ng/mL: 347

====

- experimental details: Human pharmacokinetics, dose-ranging study
- Format: in vivo
- protocol conditions: human, plasma, po, 250 mg, oral capsule; 250 mg, 3 per week; Day 15; fasted; read-out: AUC0-48

smiles string: COc1cc(OC)cc(N2CCN(C(=O)Nc3nc4cc(F)ccc4nc3OC)CC2)c1
AUC(0-t): 7770 ng·h/mL

====

- experimental details: Human pharmacokinetics, dose-ranging study
- Assay type: in vivo
- protocol conditions: human, plasma, po, 50 mg, oral capsule; 50 mg, 1 per week; Day 1; fasted; read-out: Tmax

smiles string: COc1cc(OC)cc(N2CCN(C(=O)Nc3nc4cc(F)ccc4nc3OC)CC2)c1
Tmax (h): 1.5

====

- experimental details: Human pharmacokinetics, dose-ranging study
- Type: in vivo
- protocol conditions: human, plasma, po, 575 mg, oral capsule; 575 mg, 1 per week; Day 1; fasted; read-out: AUC0-24
- Experimental: In a dose-ranging study, the pharmacokinetics (PK), safety and tolerability of RX-5902 at various oral doses were evaluated. […] Plasma concentrations were measured on Days 1 and 15, for 48 hrs, using a validated LC-MS/MS assay, and noncompartmental pharmacokinetic parameters were calculated using Phoenix WinNonlin, Version 6.4. […]

compound: COc1cc(OC)cc(N2CCN(C(=O)Nc3nc4cc(F)ccc4nc3OC)CC2)c1 [RX-5902]
AUC(0-t): 6820 ng·h/mL

====

- experimental details: Human pharmacokinetics, dose-ranging study
- Type: in vivo
- protocol conditions: human, plasma, po, 775 mg, oral capsule; 775 mg, 1 per week; Day 1; fasted; read-out: AUC0-48

molecule: COc1cc(OC)cc(N2CCN(C(=O)Nc3nc4cc(F)ccc4nc3OC)CC2)c1 [RX-5902]
AUC(0-t) [ng·h/mL]: 5010

====

- experimental details: Human pharmacokinetics, dose-ranging study
- Format: in vivo
- protocol conditions: human, plasma, po, 300 mg, oral capsule; 300 mg, 1 per week; Day 1; fed; read-out: AUC0-48

smiles string: COc1cc(OC)cc(N2CCN(C(=O)Nc3nc4cc(F)ccc4nc3OC)CC2)c1
AUC(0-t): 10700 ng·h/mL

====

- experimental details: Human pharmacokinetics, dose-ranging study
- Assay type: in vivo
- protocol conditions: human, plasma, po, 575 mg, oral capsule; 575 mg, 1 per week; Day 1; fasted; read-out: Tmax
- Experimental: In a dose-ranging study, the pharmacokinetics (PK), safety and tolerability of RX-5902 at various oral doses were evaluated. […] Plasma concentrations were measured on Days 1 and 15, for 48 hrs, using a validated LC-MS/MS assay, and noncompartmental pharmacokinetic parameters were calculated using Phoenix WinNonlin, Version 6.4. […]
measure: Tmax (h)

smiles string: COc1cc(OC)cc(N2CCN(C(=O)Nc3nc4cc(F)ccc4nc3OC)CC2)c1
numeric result: 4
